SYSTEM_UNDER_TEST: BRD3 BD2 L/V (Homo sapiens, UniProt Q15059, L345V)
Sequence (Q15059 306-416 L345V limits assumed): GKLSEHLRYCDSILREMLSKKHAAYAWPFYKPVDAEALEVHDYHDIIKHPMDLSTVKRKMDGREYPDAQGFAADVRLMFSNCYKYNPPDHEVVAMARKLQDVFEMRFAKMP
ASSAY_SUMMARY: ITC
Format: binding
Kd under 300 nM gets rule met, anything at or over 300 nM gets rule not met.

Some entries whose results are on file:
C=CC[C@@H](C(=O)OC)[C@@H]1N=C(c2ccc(Cl)cc2)c2cc(OC)ccc2-n2c(C)nnc21 (racemic): rule not met
CCNC(=O)[C@H](C)[C@@H]1N=C(c2ccc(Cl)cc2)c2ccc(OC)cc2-n2c(C)nnc21 (relative stereo): rule not met
COC(=O)[C@H](C)[C@@H]1N=C(c2ccc(Cl)cc2)c2ccc(OC)cc2-n2c(C)nnc21 [(2R,3S)-7]: rule not met
CC[C@@H](C(=O)OC)[C@@H]1N=C(c2ccc(Cl)cc2)c2ccc(OC)cc2-n2c(C)nnc21 (racemic): rule not met
CC[C@@H](C(=O)OC)[C@@H]1N=C(c2ccc(Cl)cc2)c2cc(OC)ccc2-n2c(C)nnc21 (relative stereo): rule met

Next:
Find out if reported Kd for COC(=O)[C@H](C)[C@@H]1N=C(c2ccc(Cl)cc2)c2ccc(OC)cc2-n2c(C)nnc21 (racemic) [Compound 7] is less than 300 nM
rule met

###

ASSAY_SUMMARY: in vitro
CONDITION_DESCRIPTION: PAMPA, pH 7.4
ENDPOINT_LABEL: Papp (×10⁻⁶ cm/s)
Quick reminder: number only, in ×10⁻⁶ cm/s, skip the unit.

Worked examples follow.
CCNC(=O)[C@H](C)[C@@H]1N=C(c2ccc(Cl)cc2)c2ccc(OC)cc2-n2c(C)nnc21 (relative stereo): 4
CC[C@@H](C(=O)OC)[C@@H]1N=C(c2ccc(Cl)cc2)c2cc(OC)ccc2-n2c(C)nnc21 (relative stereo): 15.3
COC(=O)[C@H](C)[C@@H]1N=C(c2ccc(Cl)cc2)c2cc(OC)ccc2-n2c(C)nnc21 (relative stereo): 18.5
C=CC[C@@H](C(=O)OC)[C@@H]1N=C(c2ccc(Cl)cc2)c2ccc(OC)cc2-n2c(C)nnc21 (relative stereo): 13.6

Which Papp is listed for COC(=O)[C@H](C)[C@@H]1N=C(c2ccc(Cl)cc2)c2ccc(OC)cc2-n2c(C)nnc21 (racemic) ?
15.8

###

SYSTEM_UNDER_TEST: BRD4 BD2 L/V (Homo sapiens, UniProt O60885, L387V)
ASSAY_SUMMARY: ITC
Type: binding
ENDPOINT_LABEL: Kd (nM)
State the answer as a number, implicitly in nM.

Some solved cases for reference:
CC[C@@H](C(=O)OC)[C@@H]1N=C(c2ccc(Cl)cc2)c2cc(OC)ccc2-n2c(C)nnc21 (relative stereo): 330
CCNC(=O)[C@H](C)[C@@H]1N=C(c2ccc(Cl)cc2)c2ccc(OC)cc2-n2c(C)nnc21 (relative stereo): 320
COC(=O)[C@H](C)[C@@H]1N=C(c2ccc(Cl)cc2)c2ccc(OC)cc2-n2c(C)nnc21 [(2R,3S)-7]: 300
COC(=O)[C@H](C)[C@@H]1N=C(c2ccc(Cl)cc2)c2ccc(OC)cc2-n2c(C)nnc21 (racemic) [Compound 7]: 980
C=CC[C@@H](C(=O)OC)[C@@H]1N=C(c2ccc(Cl)cc2)c2cc(OC)ccc2-n2c(C)nnc21 (racemic): 170

So what does the record say about Kd for CC[C@@H](C(=O)OC)[C@@H]1N=C(c2ccc(Cl)cc2)c2ccc(OC)cc2-n2c(C)nnc21 (racemic) ?
740

###

Recorded pIC50 for the following compounds
SYSTEM_UNDER_TEST: BRDT BD2 WT (Homo sapiens)
ASSAY_SUMMARY: competitive AlphaLISA
Type: binding
Lab note: report pIC50 as minus log10 of the concentration in molar units, number only.

These solved cases illustrate the format of a correct answer.
CCN(CC)C(=O)[C@H](C)[C@@H]1N=C(c2ccc(Cl)cc2)c2cc(OC)ccc2-n2c(C)nnc21 (relative stereo): 4.60
CC[C@@H](C(=O)OC)[C@@H]1N=C(c2ccc(Cl)cc2)c2cc(OC)ccc2-n2c(C)nnc21 (relative stereo): 4.80

// moving on: another record for pIC50
Fill blank: measured pIC50 of the compound COC(=O)CC1N=C(c2ccc(Cl)cc2)c2ccc(OC)cc2-n2c(C)nnc21 (stereo not drawn) is ____.
5.40

###

SYSTEM_UNDER_TEST: BRD3 BD1 WT (Homo sapiens, UniProt Q15059)
Sequence (Q15059 24-144): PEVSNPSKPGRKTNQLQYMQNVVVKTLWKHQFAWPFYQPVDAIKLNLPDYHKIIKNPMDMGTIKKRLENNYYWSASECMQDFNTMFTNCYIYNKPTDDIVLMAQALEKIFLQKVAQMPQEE
ASSAY_SUMMARY: ITC
Type: binding
CONDITION_DESCRIPTION: ITC, 30°C; read-out: Kd BRD3 BD1 WT
ENDPOINT_LABEL: pKd
pKd here: minus log base 10 of the concentration, concentration in moles per litre.

Looking for the measured pKd of CCNC(=O)[C@H](C)[C@@H]1N=C(c2ccc(Cl)cc2)c2cc(OC)ccc2-n2c(C)nnc21 (relative stereo) , can you help?
5.80

###

SYSTEM_UNDER_TEST: BRD4 BD2 L/V (Homo sapiens, UniProt O60885, L387V)
ASSAY_SUMMARY: ITC
Format: binding
CONDITION_DESCRIPTION: ITC, 30°C; read-out: Kd BRD4 BD2 L/V
ENDPOINT_LABEL: pKd
# reply with the number alone; pKd is -log10 of concentration in mol/L

Quick check: pKd on BRD4 BD2 L/V (Homo sapiens, UniProt O60885, L387V), item CCNC(=O)[C@H](CC)[C@@H]1N=C(c2ccc(Cl)cc2)c2cc(OC)ccc2-n2c(C)nnc21 (relative stereo) [Compound 17] ?
6.00

###

Test system: L/V BET bromodomains (BD1 and BD2 of BRD2, BRD3 and BRD4)
ASSAY_SUMMARY: competitive AlphaLISA (Bio-JQ1 displacement)
Format: binding, human
CONDITION_DESCRIPTION: L/V minus WT
ENDPOINT_LABEL: AlphaLISA pIC50 ± SD Δ
The answer should be a number; do not append a unit.

COC(=O)CC1N=C(c2ccc(Cl)cc2)c2ccc(OC)cc2-n2c(C)nnc21 (centres unmarked) [Compound 2]: 0.1
CC[C@@H](C(=O)OC)[C@@H]1N=C(c2ccc(Cl)cc2)c2cc(OC)ccc2-n2c(C)nnc21 (relative stereo) [Compound 4]: 1.7
C=CC[C@@H](C(=O)OC(C)(C)C)[C@@H]1N=C(c2ccc(Cl)cc2)c2ccc(OC)cc2-n2c(C)nnc21 [Compound 26]: 0.5

I'd like to know its AlphaLISA pIC50 ± SD Δ. The compound in question is C=CC[C@@H](C(=O)NCC)[C@@H]1N=C(c2ccc(Cl)cc2)c2cc(OC)ccc2-n2c(C)nnc21 (relative stereo) [Compound 18]
1.5

###

Catalogue of pIC50 readings, one per entry.
SYSTEM_UNDER_TEST: BRD3 BD2 WT (Homo sapiens, UniProt Q15059)
Sequence (Q15059 306-416): as the sequence (Q15059 306-416 L345V limits assumed) above, with V40L counted along it
ASSAY_SUMMARY: competitive AlphaLISA
Assay type: binding
A value of pIC50 is the negative decimal logarithm of a concentration given in moles per litre.

Below, each entry is followed by its recorded pIC50 result.
CCNC(=O)[C@H](C)[C@@H]1N=C(c2ccc(Cl)cc2)c2ccc(OC)cc2-n2c(C)nnc21 (relative stereo): 4.80
C=CC[C@@H](C(=O)OC)[C@@H]1N=C(c2ccc(Cl)cc2)c2ccc(OC)cc2-n2c(C)nnc21 (relative stereo): 4.30
CCC[C@@H](C(=O)OC)[C@@H]1N=C(c2ccc(Cl)cc2)c2cc(OC)ccc2-n2c(C)nnc21 (relative stereo): 4.70
CC[C@@H](C(=O)OC(C)(C)C)[C@@H]1N=C(c2ccc(Cl)cc2)c2ccc(OC)cc2-n2c(C)nnc21: 4.60

Now take the following compound into account.
Please tell me: pIC50 of C=CC[C@@H](C(=O)NCC)[C@@H]1N=C(c2ccc(Cl)cc2)c2cc(OC)ccc2-n2c(C)nnc21 (relative stereo) , system BRD3 BD2 WT (Homo sapiens, UniProt Q15059)?
4.30

###

SYSTEM_UNDER_TEST: L/V BET bromodomains (BD1 and BD2 of BRD2, BRD3 and BRD4)
ASSAY_SUMMARY: competitive AlphaLISA (Bio-JQ1 displacement)
Type: binding, human
CONDITION_DESCRIPTION: mean and SD of all somatic bromodomains; active enantiomer concentration
ENDPOINT_LABEL: AlphaLISA pIC50 ± SD L/V

Solved entries:
CCNC(=O)[C@H](CC)[C@@H]1N=C(c2ccc(Cl)cc2)c2cc(OC)ccc2-n2c(C)nnc21 (relative stereo): 5.9 ± 0.3
COC(=O)CC1N=C(c2ccc(Cl)cc2)c2ccc(OC)cc2-n2c(C)nnc21 (centres unmarked): 5.9 ± 0.2

Provide value of AlphaLISA pIC50 ± SD L/V for this record tested with L/V BET bromodomains (BD1 and BD2 of BRD2, BRD3 and BRD4): CC[C@@H](C(=O)OC)[C@@H]1N=C(c2ccc(Cl)cc2)c2ccc(OC)cc2-n2c(C)nnc21 (racemic)
6.8 ± 0.2

Ok, now C=CC[C@@H](C(=O)OC(C)(C)C)[C@@H]1N=C(c2ccc(Cl)cc2)c2ccc(OC)cc2-n2c(C)nnc21
5.8 ± 0.2

Moving on to C=CC[C@@H](C(=O)NCC)[C@@H]1N=C(c2ccc(Cl)cc2)c2cc(OC)ccc2-n2c(C)nnc21 (relative stereo)
5.9 ± 0.2

Input CCN(CC)C(=O)[C@H](C)[C@@H]1N=C(c2ccc(Cl)cc2)c2cc(OC)ccc2-n2c(C)nnc21 (relative stereo)
6.1 ± 0.2

Please answer likewise for CC[C@@H](C(=O)N(CC)CC)[C@@H]1N=C(c2ccc(Cl)cc2)c2cc(OC)ccc2-n2c(C)nnc21 (relative stereo)
5.8 ± 0.2

Also check CC[C@@H](C(=O)OC(C)(C)C)[C@@H]1N=C(c2ccc(Cl)cc2)c2ccc(OC)cc2-n2c(C)nnc21
5.0 ± 0.2

Another molecule to check: CCNC(=O)[C@H](C)[C@@H]1N=C(c2ccc(Cl)cc2)c2ccc(OC)cc2-n2c(C)nnc21 (relative stereo)
6.0 ± 0.2

Next entry: CC[C@@H](C(=O)OC(C)(C)C)[C@@H]1N=C(c2ccc(Cl)cc2)c2cc(OC)ccc2-n2c(C)nnc21
6.0 ± 0.2

Subsequent entry: C=CC[C@@H](C(=O)OC)[C@@H]1N=C(c2ccc(Cl)cc2)c2ccc(OC)cc2-n2c(C)nnc21 (relative stereo)
5.7 ± 0.2

What do you get for CCC[C@@H](C(=O)OC)[C@@H]1N=C(c2ccc(Cl)cc2)c2cc(OC)ccc2-n2c(C)nnc21 (relative stereo) ?
5.0 ± 0.1

Input C=CC[C@@H](C(=O)OC(C)(C)C)[C@@H]1N=C(c2ccc(Cl)cc2)c2cc(OC)ccc2-n2c(C)nnc21
6.2 ± 0.2

Would you mind doing CCNC(=O)[C@H](CC)[C@@H]1N=C(c2ccc(Cl)cc2)c2ccc(OC)cc2-n2c(C)nnc21 (relative stereo) as well?
5.2 ± 0.2
